TARGET_UNDER_TEST: T1, recombinant human IL-18 (rhIL-18) (human, UniProt Q14116 37-193, biotinylated (D-biotinyl-epsilon-aminocaproic acid NHS ester, 2:1 molar ratio of biotin to rhIL-18) in the BIAcore assay; not said to be biotinylated in the KG-1 assay)
T1 construct: also called full length human IL-18; biotinylated rhIL-18
EXPERIMENTAL_PROTOCOL: SPR (BIAcore), biotinylated rhIL-18 on streptavidin chip, antibody in solution
Description: Real-time binding interactions between ligand (biotinylated recombinant human IL-18 (rhIL-18) immobilized on a biosensor matrix) and analyte (antibodies in solution) were measured by surface plasmon resonance (SPR) using the BIAcore system (Pharmacia Biosensor, Piscataway, N.J.). The system utilizes the optical properties of SPR to detect alterations in protein concentrations within a dextran biosensor matrix. Proteins are covalently bound to the dextran matrix at known concentrations. […]

{"BINDER": "2E1 mutant L34S + H53R (2E1RS) (scFv, V domains shown) VH: QVQLVQSGAEVKKPGASMKVSCKTSGYTFTGYYIHWVRQAHGQGFEWIGRLNPRTGDANFAEKFQGRVALTRDTSISTAYLQLDSLKSDDTAVYYCAGKEGAWGQGTLVTVSS VL: SSELTQDPAVSVALGQTVRITCQGDSLRHFYPSWYQQKPGQAPVLVIYGKNNRPSGIPDRFSGSGSGNTGSLTITGAQAEDEADYYCGSRDSSGIHVVFGGGTKVTVLG", "koff [s⁻¹]": "6.82e-05"}

src = patent US20130101595A1
